# credit: patent US5905077A

biological target: HIV-1 protease (Human immunodeficiency virus type 1 group M subtype B); construct: Purified HIV-1 protease was obtained as described above; made in house; host or cells: E. coli K12 L507/pHP10D (NRRL B-18560); experiment: biochemical; assay type: biochemical; details: pH 5.5
pIC50: −log10 of the molar value.

compound | pIC50
CC(=O)NC(CSCc1ccccc1)C(=O)NC(Cc1ccccc1)C(O)CN1CC2CCCCC2CC1C(=O)NC(C)(C)C (stereo not shown) | 8.96

====

biological target: HIV-1 protease (Human immunodeficiency virus type 1 group M subtype B); construct: Purified HIV-1 protease was obtained as described above; made in house; host or cells: E. coli K12 L507/pHP10D (NRRL B-18560); test: biochemical; assay type: biochemical
pIC50: −log10 of the molar value.
Label met when pIC50 >= 9; otherwise not met.

smiles-notation | qualitative-label
CC(C)(C)NC(=O)[C@@H]1C[C@@H]2CCCC[C@@H]2CN1C[C@@H](O)[C@H](Cc1ccccc1)NC(=O)[C@@H](CSc1ccc(F)cc1)NS(C)(=O)=O | not met
CC(C)(C)NC(=O)[C@@H]1C[C@@H]2CCCC[C@@H]2CN1C[C@@H](O)[C@H](Cc1ccccc1)NC(=O)[C@@H](CSc1ccc2ccccc2c1)NS(C)(=O)=O | not met
CC(C)(C)NC(=O)[C@@H]1C[C@@H]2CCCC[C@@H]2CN1C[C@@H](O)[C@H](Cc1ccccc1)NC(=O)[C@@H](CS(=O)(=O)c1ccc2ccccc2c1)NS(C)(=O)=O | met
CC(=O)N[C@H](CS(=O)(=O)c1ccc2ccccc2c1)C(=O)N[C@@H](Cc1ccccc1)[C@H](O)CN1C[C@H]2CCCC[C@H]2C[C@H]1C(=O)NC(C)(C)C | met
CC(C)(C)NC(=O)[C@@H]1C[C@@H]2CCCC[C@@H]2CN1C[C@@H](O)[C@H](CSc1ccccc1)NC(=O)[C@@H](CS(=O)(=O)c1ccc(F)cc1)NS(C)(=O)=O | not met

====

biological target: HIV-1 protease (Human immunodeficiency virus type 1 group M subtype B); construct: Purified HIV-1 protease was obtained as described above; made in house; host or cells: E. coli K12 L507/pHP10D (NRRL B-18560); experiment: biochemical; assay type: biochemical
pIC50: −log10 of the molar value.
property-measured: pIC50

compound | readout-value
CC(C)(C)NC(=O)[C@@H]1CN(Cc2cccnc2)CCN1C[C@@H](O)[C@H](Cc1ccccc1)NC(=O)[C@@H](CS(=O)(=O)c1ccc(F)cc1)NS(C)(=O)=O (relative stereo) [Example 46] | 8.91
CC(C)(C)NC(=O)[C@@H]1C[C@@H]2CCCC[C@@H]2CN1C[C@@H](O)[C@H](Cc1ccccc1)NC(=O)[C@@H](CS(=O)(=O)c1ccc(F)cc1)NS(C)(=O)=O [Example 39] | 9.07
CC(C)(C)NC(=O)[C@@H]1C[C@@H]2CCCC[C@@H]2CN1C[C@@H](O)[C@H](Cc1ccccc1)NC(=O)[C@@H](CS(=O)(=O)c1ccc(F)cc1)NS(C)(=O)=O [Example 40] | 9.20
CC(C)(C)NC(=O)[C@@H]1C[C@@H]2CCCC[C@@H]2CN1C[C@@H](O)[C@H](Cc1ccccc1)NC(=O)[C@@H](C[S+]([O-])c1ccc(F)cc1)NS(C)(=O)=O (stereo partly drawn) [Example 38] | 9.14
CC(C)(C)NC(=O)[C@@H]1C[C@@H]2CCCC[C@@H]2CN1C[C@@H](O)[C@H](Cc1ccccc1)NC(=O)[C@@H](C[S+]([O-])c1ccc2ccccc2c1)NS(C)(=O)=O (stereo partly drawn) [Example 42] | 9.21
CC(=O)N[C@H](CSCc1ccccc1)C(=O)N[C@@H](Cc1ccccc1)[C@H](O)CN1C[C@H]2CCCC[C@H]2C[C@H]1C(=O)NC(C)(C)C [Example 49] | 8.96
